- assay-procedure: Cytotoxicity assay with HepG2 (alamarBlue)
- Assay type: cell-based, human
- measurement-setup: human, HepG2 cells, ED50 HepG2
Square brackets hold non-standard residues; d marks the D form. Peptide text beside a SMILES is read from it. Gly(N-2-aminoethyl) = NCCNCC(=O)O; Nphe = O=C(O)CNCc1ccccc1
experimental-readout: CC50 at 24 h
Put your answer as a value accompanied by its unit after it.

### Prompt Field request: CC50 at 24 h | item: CCCCCNCC(=O)N(CC(=O)N(CC(=O)N(CCCCN)CC(=O)N(CC(=O)N(CC(=O)N(CCCCN)CC(=O)N(CC(=O)N(CC(=O)N(CCCCN)CC(=O)N(CC(=O)N(CC(N)=O)[C@@H](C)c1ccccc1)[C@@H](C)c1ccccc1)[C@@H](C)c1ccccc1)[C@@H](C)c1ccccc1)[C@@H](C)c1ccccc1)[C@@H](C)c1ccccc1)[C@@H](C)c1ccccc1)[C@@H](C)c1ccccc1 [Peptoid 30, (NamyNspeNspe)[(NLysNspeNspe)]3]
### Response 15 µM

### Prompt Then C[C@@H](c1ccccc1)N(CC(N)=O)C(=O)CN(C(=O)CN(CCCCCCN)C(=O)CN(C(=O)CN(C(=O)CNCCCCCCN)[C@@H](C)c1ccccc1)[C@@H](C)c1ccccc1)[C@@H](C)c1ccccc1 [Peptoid 12, (NahNspeNspe)2] ?
### Response 100 µM

### Prompt Then NCCNCC(=O)N(CC(=O)N(CC(=O)N(CCN)CC(=O)N(CC(=O)N(CC(=O)N(CCN)CC(=O)N(CC(=O)N(CC(=O)N(CCN)CC(=O)N(CC(=O)N(CC(N)=O)Cc1ccccc1)Cc1ccccc1)Cc1ccccc1)Cc1ccccc1)Cc1ccccc1)Cc1ccccc1)Cc1ccccc1)Cc1ccccc1 [Peptoid 7, (NaeNpheNphe)4] (H-[Gly(N-2-aminoethyl)][Nphe][Nphe][Gly(N-2-aminoethyl)][Nphe][Nphe][Gly(N-2-aminoethyl)][Nphe][Nphe][Gly(N-2-aminoethyl)][Nphe][Nphe]-NH2) ?
### Response 100 µM

----------
- Test system: Staphylococcus epidermidis (laboratory strain from clinical isolate)
- Format: cell-based
- measurement-setup: laboratory strain from clinical isolate, 16 h
Square brackets hold non-standard residues; d marks the D form. Peptide text beside a SMILES is read from it. Gly(N-(CH2)6NH2) = NCCCCCCNCC(=O)O; Nphe = O=C(O)CNCc1ccccc1
Assign MIC S. epidermidis to each entry below.

### Prompt Field request: MIC S. epidermidis | item: C[C@@H](c1ccccc1)N(CC(N)=O)C(=O)CN(C(=O)CN(CCCCN)C(=O)CN(Cc1ccc(F)cc1)C(=O)CN(Cc1ccc(F)cc1)C(=O)CN(CCCCN)C(=O)CN(C(=O)CN(C(=O)CN(CCCCN)C(=O)CN(Cc1ccc(F)cc1)C(=O)CN(Cc1ccc(F)cc1)C(=O)CNCCCCN)[C@@H](C)c1ccccc1)[C@@H](C)c1ccccc1)[C@@H](C)c1ccccc1 [Peptoid 28, [(NLysNpfbNpfb)(NLysNspeNspe)]2]
### Response < 1 µM

### Prompt Then "C[C@@H](c1ccccc1)N(CC(N)=O)C(=O)CN(C(=O)CN(CCN)C(=O)CN(C(=O)CN(C(=O)CNCCN)[C@@H](C)c1ccccc1)[C@@H](C)c1ccccc1)[C@@H](C)c1ccccc1" ?
### Response >100 µM

### Prompt Then NCCCCCCNCC(=O)N(CC(=O)N(CC(=O)N(CCCCCCN)CC(=O)N(CC(=O)N(CC(N)=O)Cc1ccccc1)Cc1ccccc1)Cc1ccccc1)Cc1ccccc1 [Peptoid 3, (NahNpheNphe)2] (H-[Gly(N-(CH2)6NH2)][Nphe][Nphe][Gly(N-(CH2)6NH2)][Nphe][Nphe]-NH2) ?
### Response >100 µM

Cited source: paper PMC6072100
